Listed below: self-splicing fitness (ln) values for each entry.
measurement_description: self-splicing fitness, log relative to wild type (ln ratio); higher = more splicing; Tetrahymena group I intron in knt gene, E. coli kanamycin selection, DiMSum; sequences stand for … in CUCUCU…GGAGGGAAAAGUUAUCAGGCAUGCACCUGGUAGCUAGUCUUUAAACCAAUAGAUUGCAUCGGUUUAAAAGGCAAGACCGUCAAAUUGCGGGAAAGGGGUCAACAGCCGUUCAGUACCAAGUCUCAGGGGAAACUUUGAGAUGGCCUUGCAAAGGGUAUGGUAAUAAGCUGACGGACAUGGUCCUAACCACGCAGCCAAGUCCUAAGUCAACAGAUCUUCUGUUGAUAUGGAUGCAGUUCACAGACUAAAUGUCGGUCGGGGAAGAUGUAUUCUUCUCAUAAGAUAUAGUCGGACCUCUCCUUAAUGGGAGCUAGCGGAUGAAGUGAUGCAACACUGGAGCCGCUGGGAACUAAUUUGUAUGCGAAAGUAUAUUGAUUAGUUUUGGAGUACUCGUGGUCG;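 also: selection with 25 µg/mL kanamycin versus none on LB agar overnight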
stated_conditions: 37 °C
Please respond with just the number, no unit label.

CCGAAGCAAUAUUACGGCAG :: -1.44
AGUGAGCAAUAUUACGGCAU :: -0.254
GUCGAGCAAUAUUACGCAUA :: -1.6
AUCCAGCAAUAUUACGCUAC :: -1.95

Input line: Consider the sequence shown here: `UCGGAGCAAUAUUACGUACG` What is its recorded self-splicing fitness (ln)?
Output line: -0.867

Input line: Fill in: self-splicing fitness (ln) of `CCUUAGCAAUAUUACGAGGA` is ___
Output line: -1.69

Input line: Could you share which self-splicing fitness (ln) value was measured for `CAUGAGCAAUAUUACGUCCG` ?
Output line: -0.331

Input line: Any idea what its self-splicing fitness (ln) is? The sequence is `GAUCAGCAAUAUUACGCAGU`
Output line: -0.88

Input line: Entry `UACUAGCAAUAUUACGAGAU` : reported self-splicing fitness (ln) = ?
Output line: -1.54

Input line: State the recorded self-splicing fitness (ln) for this entry: `CCACAGCAAUAUUACGUAAC`
Output line: -1.35

Input line: Item under review: `GGGUAGCAAUAUUACGCCAU` . Reported self-splicing fitness (ln)?
Output line: -1.32
